system: DMS-114; test: NCI tumour cell line growth inhibition, 48 h
Active and inactive are the calls of the source. No stated cut-off is given here; in the data, active = GI50 up to about 1.1 µM and inactive = higher.
Write down one outcome, taken from true (1) for active, false (0) for inactive

| Compound | Qualitative label |
| --- | --- |
| COc1cc(NS(C)(=O)=O)ccc1Nc1c2ccccc2nc2c1[nH]c1ccc(NC3OC(CO)C(O)C(O)C3O)cc12 (centres undefined) | true (1) |
| CCN(CC)CC/N=C\c1c(O)c(O)c(C(C)C)c2cc(C)c(-c3c(C)cc4c(C(C)C)c(O)c(O)c(/C=N/CCN(CC)CC)c4c3O)c(O)c12 | false (0) |

(Q) Short answer needed: outcome of this test for Cc1ccc(NC(=O)NC23CC4CC(CC(F)(C4)C2)C3)cc1 ?
(A) false (0)

(Q) How about this compound: O=C1Nc2ccccc2N=CC1NC(=O)C(c1ccccc1)c1ccccc1 (centres undefined)
(A) false (0)

Just for reference, ChEMBL document CHEMBL1201862 is where these values come from.
